measuredTarget: MCHR1 (Homo sapiens)
Construct: purchased Promega (in-house HiBiT-GPCR construct library, NanoBRET)
Sequence (Q99705 whole entry): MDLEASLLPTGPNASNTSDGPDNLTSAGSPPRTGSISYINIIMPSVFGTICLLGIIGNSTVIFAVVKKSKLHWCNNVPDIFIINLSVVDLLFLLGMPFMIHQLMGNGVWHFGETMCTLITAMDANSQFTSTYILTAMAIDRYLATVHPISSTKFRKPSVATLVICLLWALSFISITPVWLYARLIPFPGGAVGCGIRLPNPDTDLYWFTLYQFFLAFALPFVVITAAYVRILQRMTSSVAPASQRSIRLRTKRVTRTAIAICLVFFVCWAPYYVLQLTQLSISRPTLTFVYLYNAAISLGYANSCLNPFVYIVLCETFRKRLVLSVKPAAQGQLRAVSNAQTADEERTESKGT
procedureSummary: NanoBRET screen HiBiT-MCHR1 in HEK293
Format: binding
assaySetup: MCHR1; tracer 1μM
Procedure: Each tracer candidate was screened across the entire library of HiBiT-GPCR constructs using NanoBRET as the detection modality. As depicted in Figure 4A, the specificity of interactions was evaluated through decrease in BRET due to competitive displacement of a bound tracer by excess parental compound. Each tracer was analyzed for binding to each HiBiT-GPCR fusion in the absence and in the presence of competing parental compound. […]
parameter: NanoBRET Fold Response
// return just the number, without any unit appended

Worked examples, 7 compounds total:
[[record]]
compound = "Cc1cc2c(s1)Nc1ccccc1N=C2N1CCN(CCCNC(=O)CCOCCOCCOCCOCCNC(=O)CCc2ccc3n2[B-](F)(F)[N+]2=C(c4ccc[nH]4)C=CC2=C3)CC1 [Olanzapine-a-2-NB590]"
observedvalue = 1.13

[[record]]
compound = "COc1ccccc1N1CCN(CCCCN2C(=O)c3ccc(CNC(=O)CCOCCOCCOCCOCCNC(=O)CCc4ccc5n4[B-](F)(F)[N+]4=C(c6ccc[nH]6)C=CC4=C5)cc3C2=O)CC1 [NAN-190-2-NB590]"
observedvalue = 0.93

[[record]]
compound = "O=C(CCc1ccc2n1[B-](F)(F)[N+]1=C(c3ccc[nH]3)C=CC1=C2)NCCOCCOCCNC(=O)OCCOCCN1CCN(C2=Nc3ccccc3Sc3ccccc32)CC1 [Quetiapine-a-2-NB590]"
observedvalue = 0.84

[[record]]
compound = "N#CN=C(NCCCOc1cccc(CN2CCCCC2)c1)NCCNC(=O)CCOCCOCCOCCOCCNC(=O)CCc1ccc2n1[B-](F)(F)[N+]1=C(c3ccc[nH]3)C=CC1=C2 [Aminopotentidine-2-NB590]"
observedvalue = 0.95

[[record]]
compound = "CC(C)N(CC[C@H](c1ccccc1)c1cc(CCNC(=O)c2ccc(CNC(=O)CCc3ccc4n3[B-](F)(F)[N+]3=C(c5ccc[nH]5)C=CC3=C4)cc2)ccc1O)C(C)C [Tolterodine-BZ-NB590]"
observedvalue = 0.95

[[record]]
compound = "Cc1nc2n(c(=O)c1CCN1CCC(c3noc4cc(F)ccc34)CC1)CCCC2OC(=O)NCCOCCOCCOCCOCCNC(=O)CCc1ccc2n1[B-](F)(F)[N+]1=C(c3ccc[nH]3)C=CC1=C2 (centres unmarked) [Risperidone-2-NB590]"
observedvalue = 0.97

[[record]]
compound = "O=C(CCc1ccc2n1[B-](F)(F)[N+]1=C(c3ccc[nH]3)C=CC1=C2)NCc1ccc(C(=O)NCCOCCC(=O)N[C@@H]2CC[C@@]3(O)[C@H]4Cc5ccc(O)c6c5[C@@]3(CCN4CC3CC3)[C@H]2O6)cc1 [Naltrexone-3-NB590]"
observedvalue = 0.92


Let's switch to this compound now.
Which NanoBRET Fold Response reading was recorded for the compound O=C(CCOCCOCCOCCOCCNC(=O)CCc1ccc2n1[B-](F)(F)[N+]1=C(c3ccc[nH]3)C=CC1=C2)NCCCN1CCN(C2=Nc3ccccc3Oc3ccc(Cl)cc32)CC1 [Loxapine-a-2-NB590] ? 1.20
